target: T1, human CD1d expressed on HEK-293 cells (human, UniProt P15813 20-335; P61769 21-119); experiment: flow cytometry, HEK-293 cells, 0.0316 µg/ml antibody
T1 construct: also called HEK - CD1d
Can you tell me Fluorescence Intensity Geomean (normalized to background) for the items I'm about to list?
Numbers only, in fold over background.

Some binders with known Fluorescence Intensity Geomean (normalized to background) results, for comparison:
{"binder": "77A (VR11851) (antibody, V domains shown, also called OX77a; antibody 77a) VH: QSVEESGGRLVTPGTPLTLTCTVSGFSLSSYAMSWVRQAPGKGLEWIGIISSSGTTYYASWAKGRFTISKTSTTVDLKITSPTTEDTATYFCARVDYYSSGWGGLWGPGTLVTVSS VL: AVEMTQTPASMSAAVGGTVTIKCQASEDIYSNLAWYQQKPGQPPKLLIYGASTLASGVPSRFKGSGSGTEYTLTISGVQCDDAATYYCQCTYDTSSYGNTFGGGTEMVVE", "unit_of_measurement": "fold over background", "reported": 0.9}
{"binder": "110 (VR12112) (antibody, V domains shown, also called OX110; antibody 110) VH: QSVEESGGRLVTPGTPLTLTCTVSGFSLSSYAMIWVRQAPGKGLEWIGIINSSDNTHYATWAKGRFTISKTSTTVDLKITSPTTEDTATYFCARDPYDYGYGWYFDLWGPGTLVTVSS VL: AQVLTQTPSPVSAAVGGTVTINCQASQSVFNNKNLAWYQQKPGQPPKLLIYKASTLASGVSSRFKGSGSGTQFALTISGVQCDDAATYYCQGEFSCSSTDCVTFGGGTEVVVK", "unit_of_measurement": "fold over background", "reported": 1}
{"binder": "116 (VR12117) (antibody, V domains shown, also called OX116) VH: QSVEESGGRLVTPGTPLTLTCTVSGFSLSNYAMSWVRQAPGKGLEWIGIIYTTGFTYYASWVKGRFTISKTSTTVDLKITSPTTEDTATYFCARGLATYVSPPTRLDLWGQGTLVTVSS VL: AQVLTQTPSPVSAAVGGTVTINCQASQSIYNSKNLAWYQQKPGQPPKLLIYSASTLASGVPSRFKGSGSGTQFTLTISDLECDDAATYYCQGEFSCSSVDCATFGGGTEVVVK", "unit_of_measurement": "fold over background", "reported": 1}

Now for a further binder.
// recorded Fluorescence Intensity Geomean (normalized to background) for 111 (VR12113) (antibody, V domains shown, also called OX111) VH: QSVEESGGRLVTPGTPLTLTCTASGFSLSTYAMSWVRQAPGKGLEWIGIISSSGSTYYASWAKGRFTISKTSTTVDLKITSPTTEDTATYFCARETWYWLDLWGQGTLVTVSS VL: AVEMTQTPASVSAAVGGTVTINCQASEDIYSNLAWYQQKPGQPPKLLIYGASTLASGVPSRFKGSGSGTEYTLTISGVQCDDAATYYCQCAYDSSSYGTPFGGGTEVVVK : 1
